assay: soluble on expression in E. coli; label from the status in PepcDB or PDB records
Outcome measure: soluble on expression in E. coli

For orientation, consider the following solved cases.
MGSDKIHHHHHHMKITKATDITLNDSCYLIYGNPGFGKTSVLKYIPGKTLVIDIDKSSKVLSGCENISIAEVDTHKIWDEWLNVVKELLKGAAEPFDTIVVDNVSELFRACLANLGREGKNHRVPSQADYQRVDFTILDSLRALLQLKKRIVFTAWETSDQWTDENGMIYNRAMPDIRSKILNNFLGLTDVVARLVKKTTEDGEEVRGFILQPSASVYAKNRLDDRKGCKVDELFTTELPS	not soluble
PHMSGLKKFFPYSTNVLKGAAADIALPSLAGKTVFFYFSASWCPPCRAFTPQLIDFYKAHAESKNFEVMLISWDESAEDFKDYYAKMPWLALPFEDRKGMEFLTTGFDVKSIPTLVGVEADSGNIITTQARTMVVKDPEAKDFPWPNVEAKK	soluble
MHDAATSMPPQAPSTWADYLAGYRWRGQGEGCSAATVHRLEAARRPTLFVKQEVLSAHAELPAEIARLRWLHGAGIDCPQVLNETQSDGRQWLLMSAMPGDTLSALAQRDELEPERLVRLVAAALRRLHDLDPAACPFDHRLERRLDTVRQRVEAGLVDEADFDDDHRGRSATELYRLLLDRRPAVEDLVVAHGDACLPNLLAEGRRFSGFIDCGRLGVADRHQDLALAARDIEAELGAAWAEAFLVEYGGDIDGERLAYFRLLDEFF	soluble
TEKARDLFDKLMTQIQLDDTAKEHPLIQNGRIDKVIVHQQSRLWEFHLSFDELMPVMLYQTFMQQLELAFQQIAQVSVQITTNQTTFTEEQLTDYWQLALLNSQCNTPLVQKVLKTQTPQFEDRKIILPVDNEAVIPYLKQQYLPIIEELYFSYGF	not soluble
MRKITSVSVGEQLDSFITRMVQSGRYGSASEVMRSALRLLEQQESRDEAVRNAVIEGLESGESSMTLRDIAAERKQKHRV	soluble

If you can, please state the reported soluble on expression in E. coli value of MAHHHHHHMITLQLEQHRQQLENELRKVQLQQAQQQQQLQHVQHHHNQHNQHQQQQQLQYQQSLPPVQTTMVTIDGRLYRMVSASSGEAFVNRGQPCRDLHFVDRSALVSDGSAGADGRTEAAAPQPSNHPGVCMPVSPQAELSPQQQQQHMIITVAGDRSALGETTSAAAAASLAKSSAPGTNVMLVMPTPSASHKVKYGY . soluble

Dear colleague, I am looking for the recorded soluble on expression in E. coli of the following sequence: MSLAFNVAFRLDAGAEIGLGHLMRCLAIADRLRAAGAECHFLCHDLPAHLLPLLHAHHHHSLTTQDDAGPLPSLQPDWLVFDHYQIDHVVEQELAVHCDQLLVIDDLADRPHYCQLLLDQGPLRTAADYQPLIPADCRLLLGTDYALLRPAYRQLARQQTSQWQGGLICFGGADPAGACLTTLNSLACLPWPRTIQWTLVAGGANPFWPELEQRVAELPELKITLLRQSDQMAQLMNQHDFTIGAAGGMTWERACLGLPTLAVPIVDNQEGHHHHHH not soluble

Fill blank: measured soluble on expression in E. coli of the sequence VGYGDITQVETSGASSKTSRQDKLEYDGVRASHTMAQTDAGRMEKYKSFINNVAKKHVVDPAVIAAIISRESRAGNVIFNTTPPGWGDNYNGFGLMQVDKRYHEPRGAWNSEEHIDQATGILVNFIQLIQKKFPSWSTEQQLKGAIAAYNTGDGRVESYESVDSRTTGKDYSNDVVARAQWYKKNGF is ____. soluble

Look up soluble on expression in E. coli for this sequence: MGSDKIHHHHHHMTAFSFLGDKYHDHDLFLETLKYALNCEINDLRPEDFPEIRKLPDLVVIGRWNLLDDETPWLKEGDIKILVDYVRSGGKLFVWHSGLARFPESYNGLVGGRFIHHPPQKKVRYYGKDIEFELVDEHYFVDLYSDVEIFLWSESDDGTSIAGWRRRYHNGKILALTPAHSEGLKDQVFRDFLKKVLNTFVNQTSW not soluble

Reported soluble on expression in E. coli for EHNKRVNLANAGRVSSAEGIKKLRASGVKFVWVDQSLSAQQCVFKPVEEPIDIEVGDKTLSVSSKVQRAYRSREVQHKRAKKLIAEAKGLAQKLLNQTFEGKVIQVDEIESWADDMIESVFIDSDALQCVSALRQKDSYLLEHSVNVACLLVSFGKHLGLDKDTLKQLAIGGIIHDVGKIKVDDKILHKPARLTPEEFEHMKLHQVFAGEIIVEVKGLSDVSRDVCLMHHEKLDGTGYPRGLSGDEIPIHGRMSCIVDIYDALTADRCYKKGMSSAEAFKILLSLTPFHLDPDL : what is it? not soluble

Quick one: soluble on expression in E. coli for MGSDKIHHHHHHMDTRIRDFVKTNECYFAVNTYYHPENSVISFLRYINIDKIGNHLLKDYELDENDIRILNGERFIKVADSSKAYAILKEYYPEYLFYDEINDVLLHAVPKTNIKEILSPQKRLEEVLNEQNTEAEIKCAKLADTLHDYGLEYKNMGVSGSTVLKLNNENSDIDFVIYGMEKHKIAREILSVTFKDGVLEPLSEDFWKKAYVKRIKDGTLTYDEFVWHEKRKLNRGVVDGVMFDLLATREWDEITENYGDKKYKNLGFIQIKAKVKDDTFVFDNPAVYKVENVEILNNENNAEVLASEIEEVVSFTHTYAGSTYNGEEIIVRGKLEEVSGKETYKRVVVGTTREAFNEYVKLAK ? not soluble

Which value of soluble on expression in E. coli has been reported for MSLHQILVVDDDAVSQQFLVMVLQRLGYANVVVASDGLDALIQLDAGDRRFDVIFCDLDMPRMDGIEFVRHLGERAFQGKLLISSGFDERVLESVAELARMYDLWLAGVLPKPINHQALQRLINQAPPASRHPTHAVAPPTEDELRAAIGKGEIRPFLQPQVLLADGRIRSAEVLARWQHPRLGLIGPQQFIQLAEHSSLITELTLQLLKQAAASMDRLPSETPMEMSLNLSVASLNEIALVSQFERILNDCGFPFSRLTVEVTETGLMANPTRALELLTRLRLKGARLAIDDFGTGFASMDRLSRIPFTELKIDKSFVIDAARNPTNLSIVRASAELGRQLGLVVVAEGVATESEWRLCQQLDVEIVQGSFISPPVDAESFRRWLLKHRGEGHHHHHH in the records? soluble
